System: monoclonal antibody specific for the natural N-terminal Aβ42 sequence DAEFRH
Procedure Text: Inhibition assay: mimotope peptides compete with plate-bound DAEFRH-BSA for recognition by the biotinylated monoclonal antibody (ELISA)
Type: binding, mice
Condition Info: summary Tables 1 and 2, in words
Parameter: Inhibitory capacity of mimotopes

- CC[C@H](C)[C@H](NC(=O)[C@H](CCCNC(=N)N)NC(=O)[C@H](CC(C)C)NC(=O)[C@H](CCC(=O)O)NC(=O)[C@H](CCCNC(=N)N)NC(=O)[C@@H](N)CC(=O)O)C(=O)N[C@@H](CS)C(=O)O [Peptide 1235, DRELRI]: strong
- C[C@H](NC(=O)[C@@H](N)CCC(=O)O)C(=O)N[C@@H](CCC(=O)O)C(=O)N[C@@H](Cc1ccccc1)C(=O)N[C@@H](CCCNC(=N)N)C(=O)NCC(=O)N[C@@H](CS)C(=O)O [Peptide 3006, EAEFRG]: strong
- CC(C)C[C@H](NC(=O)[C@@H](N)CCC(=O)O)C(=O)N[C@@H](CCC(=O)O)C(=O)N[C@@H](Cc1ccccc1)C(=O)N[C@@H](CCCNC(=N)N)C(=O)NCC(=O)N[C@@H](CS)C(=O)O [Peptide 3008, ELEFRG]: weak
- CC[C@H](C)[C@H](NC(=O)[C@H](CCCNC(=N)N)NC(=O)[C@H](CC(C)C)NC(=O)[C@H](CCC(=O)O)NC(=O)[C@H](CCCCN)NC(=O)[C@@H](N)CC(=O)O)C(=O)N[C@@H](CS)C(=O)O [Peptide 3001, DKELRI]: strong
